Kindly state inhibition at 32 µg/mL for each of the entries shown.
Test system: Acinetobacter baumannii ATCC 19606
assay-remarks: Single-dose growth inhibition, Ab
Format: cell-based
conditions: ATCC19606, 32 μg/mL single dose, n=2, read-out: Growth inhibition Ab

// C[N+](C)(C)CC[N+](C)(C)CCCCCCCCOc1ccc(/C=C/c2ccc(OCCCCCCCC[N+](C)(C)CC[N+](C)(C)C)cc2)cc1 [COE-D82] : inhibition at 32 µg/mL value = 50 to 80%

The compound listed as CN(C)CC[N+](C)(C)CCCCOc1ccc(/C=C/c2ccc(/C=C/c3ccc(OCCCC[N+](C)(C)CCN(C)C)cc3)cc2)cc1 [COE-T42N] shows inhibition at 32 µg/mL equal to > 80%

Consider CN(C)CC[N+](C)(C)CCCCCCOc1ccc(/C=C/c2ccc(OCCCCCC[N+](C)(C)CCN(C)C)cc2)cc1 [COE-D62N] . Its measured inhibition at 32 µg/mL is > 80%

Consider C[N+](C)(C)CCCCOc1ccc(/C=C/c2ccc(/C=C/c3ccc(OCCCC[N+](C)(C)C)cc3)cc2)cc1 [COE-T4] . Its measured inhibition at 32 µg/mL is 50 to 80%

Value of measured inhibition at 32 µg/mL for the entry CN(C)CC[N+](C)(C)CCCCCCCCOc1ccc(/C=C/c2ccc(OCCCCCCCC[N+](C)(C)CCN(C)C)cc2)cc1 [COE-D82N] : > 80%

Entry under test: C[N+](C)(C)CC[N+](C)(C)CCCCCCOc1ccc(/C=C/c2ccc(OCCCCCC[N+](C)(C)CC[N+](C)(C)C)cc2)cc1 [COE-D62] . Its inhibition at 32 µg/mL was > 80%

So for C[N+](C)(C)CCCCCCOc1ccc(/C=C/c2ccc(/C=C/c3ccc(OCCCCCC[N+](C)(C)C)cc3)cc2)cc1 [COE-T6] , the logged inhibition at 32 µg/mL turned out to be < 50%

Given item CN(C)CC[N+](C)(C)CCCCCCOc1ccc(/C=C/c2ccc(/C=C/c3ccc(OCCCCCC[N+](C)(C)CCN(C)C)cc3)cc2)cc1 [COE-T62N] , the value recorded as its inhibition at 32 µg/mL is > 80%

The recorded inhibition at 32 µg/mL for entry C[N+](C)(C)CC[N+](C)(C)CCCCCCOc1ccc(/C=C/c2ccc(/C=C/c3ccc(OCCCCCC[N+](C)(C)CC[N+](C)(C)C)cc3)cc2)cc1 [COE-T62] equals < 50%
